# PROCEDURE TEXT: ANTS/DPX liposome leakage assay, POPC vesicles
# Assay type: biochemical
# MEASUREMENT PARAMETERS: 0.5 mM vesicles, pH 4.8, lipid per peptide
Catalogue of Peptide Concentration-induced 50% ANTS/DPX leakage at pH 4.8, POPC Vesicle values
Return type: number; implicit unit L/P.

STRUCTURE	NUMERIC RESULT
CC(C)C[C@H](NC(=O)CN)C(=O)N[C@@H](CC(C)C)C(=O)N[C@@H](CC(=O)O)C(=O)N[C@@H](CC(C)C)C(=O)N[C@@H](CC(C)C)C(=O)N[C@@H](CCCCN)C(=O)N[C@@H](CC(C)C)C(=O)N[C@@H](CC(C)C)C(=O)N[C@@H](CC(C)C)C(=O)N[C@@H](CCCCN)C(=O)N[C@@H](C)C(=O)N[C@@H](C)C(=O)NCC(=O)N[C@@H](Cc1c[nH]c2ccccc12)C(N)=O	47
CC(C)C[C@H](NC(=O)CN)C(=O)N[C@@H](CC(C)C)C(=O)N[C@@H](CCCCN)C(=O)N[C@@H](CC(C)C)C(=O)N[C@@H](CC(C)C)C(=O)N[C@@H](CCCCN)C(=O)N[C@@H](CC(C)C)C(=O)N[C@@H](CC(C)C)C(=O)N[C@@H](CC(C)C)C(=O)N[C@@H](CCCCN)C(=O)N[C@@H](C)C(=O)N[C@@H](C)C(=O)NCC(=O)N[C@@H](Cc1c[nH]c2ccccc12)C(N)=O	156
CC(C)C[C@H](NC(=O)CN)C(=O)N[C@@H](CC(C)C)C(=O)N[C@@H](Cc1c[nH]cn1)C(=O)N[C@@H](CC(C)C)C(=O)N[C@@H](CC(C)C)C(=O)N[C@@H](Cc1c[nH]cn1)C(=O)N[C@@H](CC(C)C)C(=O)N[C@@H](CC(C)C)C(=O)N[C@@H](CC(C)C)C(=O)N[C@@H](CCCCN)C(=O)N[C@@H](C)C(=O)N[C@@H](C)C(=O)NCC(=O)N[C@@H](Cc1c[nH]c2ccccc12)C(N)=O	149
CC(C)C[C@H](NC(=O)CN)C(=O)N[C@@H](CC(C)C)C(=O)N[C@@H](CCCCN)C(=O)N[C@@H](CC(C)C)C(=O)N[C@@H](CC(C)C)C(=O)N[C@@H](CCC(=O)O)C(=O)N[C@@H](CC(C)C)C(=O)N[C@@H](CC(C)C)C(=O)N[C@@H](CC(C)C)C(=O)N[C@@H](CCC(=O)O)C(=O)N[C@@H](C)C(=O)N[C@@H](C)C(=O)NCC(=O)N[C@@H](Cc1c[nH]c2ccccc12)C(N)=O	97

For the compound "CC(C)C[C@H](NC(=O)CN)C(=O)N[C@@H](CC(C)C)C(=O)N[C@@H](CCC(=O)O)C(=O)N[C@@H](CC(C)C)C(=O)N[C@@H](CC(C)C)C(=O)N[C@@H](CCCCN)C(=O)N[C@@H](CC(C)C)C(=O)N[C@@H](CC(C)C)C(=O)N[C@@H](CC(C)C)C(=O)N[C@@H](CCC(=O)O)C(=O)N[C@@H](C)C(=O)N[C@@H](C)C(=O)NCC(=O)N[C@@H](Cc1c[nH]c2ccccc12)C(N)=O" , what Peptide Concentration-induced 50% ANTS/DPX leakage at pH 4.8, POPC Vesicle is on record?
75

Likewise for "CC(C)C[C@H](NC(=O)CN)C(=O)N[C@@H](CC(C)C)C(=O)N[C@@H](CCCCN)C(=O)N[C@@H](CC(C)C)C(=O)N[C@@H](CC(C)C)C(=O)N[C@@H](CCCCN)C(=O)N[C@@H](CC(C)C)C(=O)N[C@@H](CC(C)C)C(=O)N[C@@H](CC(C)C)C(=O)N[C@@H](Cc1c[nH]cn1)C(=O)N[C@@H](C)C(=O)N[C@@H](C)C(=O)NCC(=O)N[C@@H](Cc1c[nH]c2ccccc12)C(N)=O" ?
164

Likewise for "CC(C)C[C@H](NC(=O)CN)C(=O)N[C@@H](CC(C)C)C(=O)N[C@@H](CCCCN)C(=O)N[C@@H](CC(C)C)C(=O)N[C@@H](CC(C)C)C(=O)N[C@@H](CCCCN)C(=O)N[C@@H](CC(C)C)C(=O)N[C@@H](CC(C)C)C(=O)N[C@@H](CC(C)C)C(=O)N[C@@H](CCC(=O)O)C(=O)N[C@@H](C)C(=O)N[C@@H](C)C(=O)NCC(=O)N[C@@H](Cc1c[nH]c2ccccc12)C(N)=O" ?
143

Likewise for "CC(C)C[C@H](NC(=O)CN)C(=O)N[C@@H](CC(C)C)C(=O)N[C@@H](CC(=O)O)C(=O)N[C@@H](CC(C)C)C(=O)N[C@@H](CC(C)C)C(=O)N[C@@H](CCC(=O)O)C(=O)N[C@@H](CC(C)C)C(=O)N[C@@H](CC(C)C)C(=O)N[C@@H](CC(C)C)C(=O)N[C@@H](CCC(=O)O)C(=O)N[C@@H](C)C(=O)N[C@@H](C)C(=O)NCC(=O)N[C@@H](Cc1c[nH]c2ccccc12)C(N)=O" ?
110

Likewise for "CC(C)C[C@H](NC(=O)CN)C(=O)N[C@@H](CC(C)C)C(=O)N[C@@H](CC(=O)O)C(=O)N[C@@H](CC(C)C)C(=O)N[C@@H](CC(C)C)C(=O)N[C@@H](Cc1c[nH]cn1)C(=O)N[C@@H](CC(C)C)C(=O)N[C@@H](CC(C)C)C(=O)N[C@@H](CC(C)C)C(=O)N[C@@H](Cc1c[nH]cn1)C(=O)N[C@@H](C)C(=O)N[C@@H](C)C(=O)NCC(=O)N[C@@H](Cc1c[nH]c2ccccc12)C(N)=O" ?
106

Likewise for "CC(C)C[C@H](NC(=O)CN)C(=O)N[C@@H](CC(C)C)C(=O)N[C@@H](CCC(=O)O)C(=O)N[C@@H](CC(C)C)C(=O)N[C@@H](CC(C)C)C(=O)N[C@@H](CCCCN)C(=O)N[C@@H](CC(C)C)C(=O)N[C@@H](CC(C)C)C(=O)N[C@@H](CC(C)C)C(=O)N[C@@H](CCCCN)C(=O)N[C@@H](C)C(=O)N[C@@H](C)C(=O)NCC(=O)N[C@@H](Cc1c[nH]c2ccccc12)C(N)=O" ?
60
